target: T1, mtDsbC-SARS-CoV-2 RBD Alpha variant (B.1.1.7) fusion protein (SARS-CoV-2, Alpha (B.1.1.7), RBD N501Y, N501Y, biotin (EZ-Link NHS-PEG4-Biotin)); experiment: BLI; biotinylated mtDsbC-RBD (20 µg/mL) immobilised on streptavidin (SA) biosensors, Fabs as analytes at three nanomolar concentrations; Octet RED384, 30 °C, 1000 rpm, 1 × PBS Kinetics Buffer; 1:1 interaction model, global fit; conditions: both partners purified
T1 construct: also called RBD SARS-CoV-2 (alpha variant); not shown: mtDsbC solubility tag, N-terminal, kept
outcomeMeasure: pKd
Quick note: pKd means taking -log10 of the concentration in moles per liter.

Example entries and their recorded answers appear below.
REGN10933 (A75S) Fab (Fab, V domains shown) VH: QVQLVESGGGLVKPGGSLRLSCAASGFTFSDYYMSWIRQAPGKGLEWVSYITYSGSTIYYADSVKGRFTISRDNSKSSLYLQMNSLRAEDTAVYYCARDRGTTMVPFDYWGQGTLVTVSS VL: DIQMTQSPSSLSASVGDRVTITCQASQDITNYLNWYQQKPGKAPKLLIYAASNLETGVPSRFSGSGSGTDFTFTISGLQPEDIATYYCQQYDNLPLTFGGGTKVEIK | 8.56
REGN10933 (M104N) Fab (Fab, V domains shown) VH: QVQLVESGGGLVKPGGSLRLSCAASGFTFSDYYMSWIRQAPGKGLEWVSYITYSGSTIYYADSVKGRFTISRDNAKSSLYLQMNSLRAEDTAVYYCARDRGTTNVPFDYWGQGTLVTVSS VL: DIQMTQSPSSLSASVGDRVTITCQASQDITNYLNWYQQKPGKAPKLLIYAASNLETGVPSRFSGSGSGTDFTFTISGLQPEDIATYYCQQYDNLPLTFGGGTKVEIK | 6.92
REGN10987 (Imdevimab) Fab wild type (Fab, V domains shown, Fab heavy chain of REGN10987; Fab light chain of REGN10987; Polycistronic gene, light chain upstream of heavy chain; also called REGN10987 wild type; REGN10987 Fab) VH: QVQLVESGGGVVQPGRSLRLSCAASGFTFSNYAMYWVRQAPGKGLEWVAVISYDGSNKYYADSVKGRFTISRDNSKNTLYLQMNSLRTEDTAVYYCASGSDYGDYLLVYWGQGTLVTVSS VL: QSALTQPASVSGSPGQSITISCTGTSSDVGGYNYVSWYQQHPGKAPKLMIYDVSKRPSGVSNRFSGSKSGNTASLTISGLQSEDEADYYCNSLTSISTWVFGGGTKLTVL | 7.27
REGN10987 (N31D) Fab (Fab, V domains shown) VH: QVQLVESGGGVVQPGRSLRLSCAASGFTFSDYAMYWVRQAPGKGLEWVAVISYDGSNKYYADSVKGRFTISRDNSKNTLYLQMNSLRTEDTAVYYCASGSDYGDYLLVYWGQGTLVTVSS VL: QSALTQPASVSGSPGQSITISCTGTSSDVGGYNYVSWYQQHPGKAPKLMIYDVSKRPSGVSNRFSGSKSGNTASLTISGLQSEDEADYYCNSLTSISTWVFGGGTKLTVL | 7.86
REGN10987 (S95K) Fab (Fab, V domains shown) VH: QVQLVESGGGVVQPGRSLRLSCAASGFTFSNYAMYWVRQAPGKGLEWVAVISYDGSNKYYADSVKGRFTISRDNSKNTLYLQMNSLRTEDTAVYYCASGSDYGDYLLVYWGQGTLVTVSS VL: QSALTQPASVSGSPGQSITISCTGTSSDVGGYNYVSWYQQHPGKAPKLMIYDVSKRPSGVSNRFSGSKSGNTASLTISGLQSEDEADYYCNSLTKISTWVFGGGTKLTVL | 7.64
REGN10933 (N93Q) Fab (Fab, V domains shown) VH: QVQLVESGGGLVKPGGSLRLSCAASGFTFSDYYMSWIRQAPGKGLEWVSYITYSGSTIYYADSVKGRFTISRDNAKSSLYLQMNSLRAEDTAVYYCARDRGTTMVPFDYWGQGTLVTVSS VL: DIQMTQSPSSLSASVGDRVTITCQASQDITNYLNWYQQKPGKAPKLLIYAASNLETGVPSRFSGSGSGTDFTFTISGLQPEDIATYYCQQYDQLPLTFGGGTKVEIK | 8.47

// below: pKd requested for another binder
Prompt: Input REGN10933 (Casirivimab) Fab wild type (Fab, V domains shown, Fab heavy chain of REGN10933; Fab light chain of REGN10933; Polycistronic gene, light chain upstream of heavy chain; also called REGN10933 wild type; REGN10933 Fab) VH: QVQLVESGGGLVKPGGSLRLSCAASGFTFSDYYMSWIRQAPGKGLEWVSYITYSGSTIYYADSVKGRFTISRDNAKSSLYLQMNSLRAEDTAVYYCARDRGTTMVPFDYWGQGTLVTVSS VL: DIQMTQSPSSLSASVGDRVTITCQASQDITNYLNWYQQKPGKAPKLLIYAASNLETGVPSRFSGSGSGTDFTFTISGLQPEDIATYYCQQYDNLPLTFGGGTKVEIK , output reported pKd.
Response: 8.51
